# Test system: SR
# PROCEDURE_TEXT: NCI tumour cell line growth inhibition, 48 h
Active and inactive are the calls of the source. Cut-off read from the data, not from the text of the source: active = GI50 up to about 1.1 µM and inactive = higher.
Entries and their GI50

Solved entries:
>>> obs_value("O=C(O)CNCc1c2ccccc2nc2ccccc12")
"7.33 µM (inactive)"
>>> obs_value("O=P1(c2ccccc2)C(c2ccccc2)=CC=C1c1ccccc1")
"11.9 µM (inactive)"
>>> obs_value("COc1ccc(CCN2CCN(CCCc3ccccc3)CC2)cc1")
"47.8 µM (inactive)"
>>> obs_value("NC(=S)N/N=C1\\c2ccccc2CCC1CCC1(O)CCc2ccccc2C1=O (stereo not drawn)")
"35.2 µM (inactive)"
>>> obs_value("Oc1ccc(Cl)cc1/N=N\\c1c(O)ccc2ccccc12")
"> 100 µM (inactive)"

Read the next record carefully.
# GI50 (compound: Cc1ccc(S(=O)(=O)Nc2ccccc2C=O)cc1 ) is 18.2 µM (inactive)
